Tested on: MRSA-LR
Test: Antimicrobial activity, MIC by agar plate dilution method against MRSA-LR
Type: cell-based, methicillin resistant Staphylococcus aureus
Settings: Staphylococcus aureus, read-out: minimal inhibitory concentration (MIC) against MRSA-LR
measurementLabel: MIC

Worked cases, MIC given:
compound | MIC
NCC[C@H](O)C(=O)N[C@@H]1C[C@H](N)[C@@H](O[C@H]2O[C@H](CN)CC[C@H]2N)[C@H](O)[C@H]1O[C@H]1O[C@H](CO)[C@@H](O)[C@H](N)[C@H]1O [arbekacin, reference compound] | 16 µg/mL
NCC[C@H](O)C(=O)NC1C[C@H](N)C(O[C@H]2OC(CN)C=CC2N)C(O)[C@H]1O[C@H]1OC(CO)[C@@H](O)C(N)C1O (some centres unmarked) [Example 44, 3′,4′-didehydro-5-epiarbekacin] | ≤ 4 µg/mL

Specify MIC for NCC1CCC(N)[C@@H](OC2C(O)[C@@H](O[C@H]3OC(CO)[C@H](O)C(N)C3O)C(NC(=O)[C@@H](O)CN)C[C@@H]2N)O1 (some centres unmarked) [Example 9] and stop.
≤ 4 µg/mL

Give recorded MIC. NCC[C@H](O)C(=O)NC1C[C@H](N)C(O[C@H]2OC(CN)CCC2N)C(O)[C@H]1O[C@H]1OC(CO)[C@@H](O)C(N)C1O (some centres unmarked) [Example 13, 5-Epiarbekacin]
≤ 4 µg/mL

Read the entry NCC[C@H](O)C(=O)NC1C[C@H](N)C(O[C@H]2OC(CN)CCC2N)C(O)[C@H]1O[C@H]1OC(C(O)CN)[C@@H](O)C(N)C1O (some centres unmarked) [Example 76, 6″-Aminomethylarbekacin] and write its reported MIC.
≤ 4 µg/mL
